Target Under Test: cAMP-dependent protein kinase catalytic subunit alpha (Homo sapiens);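 also: reported value is the mean percent inhibition of PKA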
Settings: at 0.1 µM
// inhibition lookup, one value per entry
Assay Readout: inhibition (%)

[[record]]
smiles_repr = "CCn1c(-c2nonc2N)nc2c(C#CC(C)(C)O)ncc(OC3CCNCC3)c21"
assay_readout = "inhibition"
endpoint_unit = "%"
readout_value = 62.4

[[record]]
smiles_repr = "CCn1cc(-c2ccnc3[nH]ccc23)c(-c2cccc(NC(=O)Nc3ccc(OCc4ccccc4)cc3)c2)n1"
assay_readout = "inhibition"
endpoint_unit = "%"
readout_value = 4.08

[[record]]
smiles_repr = "c1cc(-c2cnn3nc(N4CCOCC4)ccc23)nc(NC2CC2)n1"
assay_readout = "inhibition"
endpoint_unit = "%"
readout_value = 1.21

[[record]]
smiles_repr = "CC(C)(CO)CNC(=O)c1ccc2c(c1)/C(=N/Nc1ccc(S(N)(=O)=O)cc1)C(=O)N2"
assay_readout = "inhibition"
endpoint_unit = "%"
readout_value = 0.87

[[record]]
smiles_repr = "c1ccc(-c2nc3n(c2-c2ccc4c(c2)OCO4)CCC3)nc1"
assay_readout = "inhibition"
endpoint_unit = "%"
readout_value = 1.49

[[record]]
smiles_repr = "Cc1ccc(O)cc1Nc1ccnc2cc(-c3ccccn3)ccc12"
assay_readout = "inhibition"
endpoint_unit = "%"
readout_value = 1.65

[[record]]
smiles_repr = "Fc1ccc(-c2cc(-c3c[nH]nc3-c3ccccn3)ccn2)cc1"
assay_readout = "inhibition"
endpoint_unit = "%"
readout_value = 1.9

[[record]]
smiles_repr = "CNC(=O)c1cccc(C#Cc2cncnc2Nc2ccc(OCc3cccc(F)c3)c(Cl)c2)c1"
assay_readout = "inhibition"
endpoint_unit = "%"
readout_value = 1.13

[[record]]
smiles_repr = "COc1cc(N2CCN(C(C)C)CC2)ccc1Nc1nc(Nc2ccc(F)cc2C(N)=O)c2cc[nH]c2n1"
assay_readout = "inhibition"
endpoint_unit = "%"
readout_value = 7.85

[[record]]
smiles_repr = "O=C(Nc1n[nH]c2cc(-c3ccc(F)cc3)ccc12)C1CC1"
assay_readout = "inhibition"
endpoint_unit = "%"
readout_value = 1.56

[[record]]
smiles_repr = "COc1ccc(-c2oc3ncnc(N)c3c2-c2ccc(NC(=O)Nc3cc(C(F)(F)F)ccc3F)cc2)cc1"
assay_readout = "inhibition"
endpoint_unit = "%"
readout_value = 3.34

[[record]]
smiles_repr = "Fc1cccc(COc2ccc(Nc3ncnc4sc(-c5ccco5)cc34)cc2Cl)c1"
assay_readout = "inhibition"
endpoint_unit = "%"
readout_value = 0.8

[[record]]
smiles_repr = "COc1cc(/C=N/Nc2ncnc3[nH]ncc23)ccc1O"
assay_readout = "inhibition"
endpoint_unit = "%"
readout_value = 1.43

[[record]]
smiles_repr = "[O-][S+]1CCN(Cc2ccc(-c3ccc4ncnc(Nc5ccc(OCc6cccc(F)c6)c(Cl)c5)c4c3)o2)CC1"
assay_readout = "inhibition"
endpoint_unit = "%"
readout_value = 2.27

[[record]]
smiles_repr = "NS(=O)(=O)c1ccc(Nc2ncc(-c3ccccc3)o2)cc1"
assay_readout = "inhibition"
endpoint_unit = "%"
readout_value = 1.3

[[record]]
smiles_repr = "COC(=O)Nc1nc2ccc(Oc3ccc(NC(=O)Nc4cccc(Cl)c4)cc3)cc2[nH]1"
assay_readout = "inhibition"
endpoint_unit = "%"
readout_value = 2.12

[[record]]
smiles_repr = "Cc1cccc2c1NC(=O)/C2=N\\Nc1ccc(S(N)(=O)=O)cc1"
assay_readout = "inhibition"
endpoint_unit = "%"
readout_value = 1.54

[[record]]
smiles_repr = "CCCN(CCS(C)(=O)=O)Cc1ccc(-c2ccc3ncnc(Nc4ccc(OCc5cccc(F)c5)c(Cl)c4)c3c2)o1"
assay_readout = "inhibition"
endpoint_unit = "%"
readout_value = 0.67

[[record]]
smiles_repr = "COc1ccc2[nH]c3c4[nH]c5ccc(OC)cc5c4c4c(c3c2c1)C(=O)NC4=O"
assay_readout = "inhibition"
endpoint_unit = "%"
readout_value = 4.03

[[record]]
smiles_repr = "CCn1c(-c2nonc2N)nc2cnc(Oc3cccc(NC(=O)c4ccc(N(C)C)cc4)c3)cc21"
assay_readout = "inhibition"
endpoint_unit = "%"
readout_value = 19.6

[[record]]
smiles_repr = "O=S(=O)(CCNCc1ccc(-c2ccc3ncnc(Nc4ccc(OCc5cccc(F)c5)c(Cl)c4)c3c2)o1)c1ccccc1"
assay_readout = "inhibition"
endpoint_unit = "%"
readout_value = 2.48

[[record]]
smiles_repr = "COc1cc2ncn(-c3cc(OCc4ccccc4C(F)(F)F)c(C(=O)N(C)C)s3)c2cc1OC"
assay_readout = "inhibition"
endpoint_unit = "%"
readout_value = 0.88

[[record]]
smiles_repr = "O=C(O[C@H]1CN[C@H](C#Cc2cc3ncnc(Nc4ccc(Cc5ccccc5)cc4)c3s2)C1)N1CCOCC1"
assay_readout = "inhibition"
endpoint_unit = "%"
readout_value = 4.03

[[record]]
smiles_repr = "N#Cc1c(NC(=O)CN2CCOCC2)sc2c1CCCC2"
assay_readout = "inhibition"
endpoint_unit = "%"
readout_value = 2.3

[[record]]
smiles_repr = "Cc1ccc2c(-c3ccnc(Nc4ccccc4)n3)c(-c3ccc(F)cc3)nn2n1"
assay_readout = "inhibition"
endpoint_unit = "%"
readout_value = 1.83

[[record]]
smiles_repr = "c1ccc(COc2ccc(Nc3ncnc4ccc(-c5ccco5)cc34)cc2)cc1"
assay_readout = "inhibition"
endpoint_unit = "%"
readout_value = 1.25

[[record]]
smiles_repr = "CC(=O)Nc1cccc(C#Cc2cncnc2Nc2ccc(OCc3cccc(F)c3)c(Cl)c2)c1"
assay_readout = "inhibition"
endpoint_unit = "%"
readout_value = 2.17

[[record]]
smiles_repr = "COC(=O)c1sc(-n2cnc3cc(OC)c(OC)cc32)cc1OCc1ccccc1C(F)(F)F"
assay_readout = "inhibition"
endpoint_unit = "%"
readout_value = 1.59

[[record]]
smiles_repr = "COc1ccc(-c2cc3c(N)ncnc3o2)cc1"
assay_readout = "inhibition"
endpoint_unit = "%"
readout_value = -0.06

[[record]]
smiles_repr = "CS(=O)(=O)CCNCc1coc(-c2ccc3ncnc(Nc4ccc(OCc5ccccc5)cc4)c3c2)c1"
assay_readout = "inhibition"
endpoint_unit = "%"
readout_value = 1.59

[[record]]
smiles_repr = "COc1cc(Nc2nccc(Nc3ccc4c(C)n[nH]c4c3)n2)cc(OC)c1OC"
assay_readout = "inhibition"
endpoint_unit = "%"
readout_value = 2.38

[[record]]
smiles_repr = "CS(=O)(=O)CCNCc1ccc(-c2ccc3ncnc(Nc4ccc(OCc5ccccc5)c(C(F)(F)F)c4)c3c2)o1"
assay_readout = "inhibition"
endpoint_unit = "%"
readout_value = 1.37

[[record]]
smiles_repr = "CNC(=O)c1cncc(/C=C/c2ccccc2Cl)c1"
assay_readout = "inhibition"
endpoint_unit = "%"
readout_value = 1.4

[[record]]
smiles_repr = "COc1cc2c(cc1Nc1nc(Nc3ccsc3C(N)=O)c3cc[nH]c3n1)N(C(=O)CN(C)C)CCC2(C)C"
assay_readout = "inhibition"
endpoint_unit = "%"
readout_value = 2.98

[[record]]
smiles_repr = "COc1ccc(-c2cc(-c3c[nH]nc3-c3ccccn3)ccn2)cc1"
assay_readout = "inhibition"
endpoint_unit = "%"
readout_value = 2.05

[[record]]
smiles_repr = "CCNC(=O)O[C@H]1CN[C@H](C#Cc2cc3ncnc(Nc4ccc(OCc5cccc(F)c5)c(Cl)c4)c3s2)C1"
assay_readout = "inhibition"
endpoint_unit = "%"
readout_value = 1.62

[[record]]
smiles_repr = "CC(=O)NCc1cccc(C#Cc2cncnc2Nc2ccc(OCc3cccc(F)c3)c(Cl)c2)c1"
assay_readout = "inhibition"
endpoint_unit = "%"
readout_value = 0.53

[[record]]
smiles_repr = "CCCN1CCC(c2ccc(Nc3nc(Nc4cc(F)ccc4C(N)=O)c4cc[nH]c4n3)c(OC)c2)CC1"
assay_readout = "inhibition"
endpoint_unit = "%"
readout_value = 2.33

[[record]]
smiles_repr = "Clc1ccc(-c2nn3ncccc3c2-c2ccnc(Nc3ccccc3)n2)cc1"
assay_readout = "inhibition"
endpoint_unit = "%"
readout_value = 1.67

[[record]]
smiles_repr = "Fc1ccc(-c2nn3ccccc3c2-c2ccncc2)cc1"
assay_readout = "inhibition"
endpoint_unit = "%"
readout_value = 2.55


Reference source for all entries: ChEMBL document CHEMBL1961873
